- Tested on: hiPSC-CMs (Cor.4U cardiomyocytes)
- Assay Method Text: calcium transient-based hiPSC-CM (CTCM) assay with cardiac hazard scoring
- Measurement Conditions: 30-min incubation, reference drugs
Metric Name: effect on CTD90

>  <Compound>
CC(=O)c1c(O)c(C)c(O)c(Cc2c(O)c3c(c(C(=O)/C=C/c4ccccc4)c2O)OC(C)(C)C=C3)c1O [Mallotoxin]

>  <Value Observed>
CTD90 shortening

$$$$
>  <Compound>
CC1(C)Oc2ccc(C#N)cc2[C@@H](N2CCCC2=O)[C@@H]1O [Levcromakalim]

>  <Value Observed>
CTD90 shortening

$$$$
>  <Compound>
CC(N/C(=N\C#N)Nc1ccncc1)C(C)(C)C (stereo not shown) [Pinacidil]

>  <Value Observed>
CTD90 shortening

$$$$
>  <Compound>
CCN(CC)CCCN(c1ccccc1)C1Cc2ccccc2C1 [Aprindine]

>  <Value Observed>
CTD90 prolongation

$$$$
>  <Compound>
CCCNCC(O)COc1ccccc1C(=O)CCc1ccccc1 (stereo not shown) [Propafenone]

>  <Value Observed>
CTD90 prolongation

$$$$
>  <Compound>
CCC(=O)O[C@](Cc1ccccc1)(c1ccccc1)[C@H](C)CN(C)C [Propoxyphene]

>  <Value Observed>
CTD90 prolongation

$$$$
>  <Compound>
O=C(Nc1ccc(Oc2ccccc2)cc1)c1cccc([N+](=O)[O-])c1 [ICA-105574]

>  <Value Observed>
CTD90 shortening

$$$$

====

- System: hiPSC-CMs (Cor.4U cardiomyocytes)
- Assay Method Text: calcium transient-based hiPSC-CM (CTCM) assay with cardiac hazard scoring
- Measurement Conditions: reference drugs, tested concentrations of Figure 5 (selected to cover the therapeutic free Cmax), 30-min incubation

>  <Compound>
C[C@@H]1O[C@@H](O[C@H]2C[C@@H](O)[C@]3(CO)[C@H]4[C@H](O)C[C@]5(C)[C@@H](C6=CC(=O)OC6)CC[C@]5(O)[C@@H]4CC[C@]3(O)C2)[C@H](O)[C@H](O)[C@H]1O [Ouabain]

>  <cardiac hazard label>
high

$$$$
>  <Compound>
O=C(Nc1ccc(Oc2ccccc2)cc1)c1cccc([N+](=O)[O-])c1 [ICA-105574]

>  <cardiac hazard label>
hazard identification

$$$$
>  <Compound>
CC(=O)c1c(O)c(C)c(O)c(Cc2c(O)c3c(c(C(=O)/C=C/c4ccccc4)c2O)OC(C)(C)C=C3)c1O [Mallotoxin]

>  <cardiac hazard label>
hazard identification

$$$$
>  <Compound>
CCCCCNC(=N)N/N=C/c1c[nH]c2ccc(OC)cc12 [Tegaserod]

>  <cardiac hazard label>
high

$$$$
>  <Compound>
Cc1cccc(C)c1OCC(C)N (centres unmarked) [Mexiletine]

>  <cardiac hazard label>
low or high

$$$$
>  <Compound>
CC(C)(C)NCC(O)c1ccc(O)c(CO)c1 (centres unmarked) [Salbutamol]

>  <cardiac hazard label>
low or high

$$$$
>  <Compound>
CC(C)NCC(O)c1ccc(O)c(O)c1 (centres unmarked) [Isoprenaline]

>  <cardiac hazard label>
low or high

$$$$
>  <Compound>
CC(CCc1ccc(O)cc1)NCCc1ccc(O)c(O)c1 (centres unmarked) [Dobutamine]

>  <cardiac hazard label>
low or high

$$$$
>  <Compound>
COC(=O)C1=C(C)NC(C)=C([N+](=O)[O-])C1c1ccccc1C(F)(F)F (centres unmarked) [BAYK8644]

>  <cardiac hazard label>
high

$$$$
>  <Compound>
O=C1NC(=O)C(c2ccccc2)(c2ccccc2)N1 [Phenytoin]

>  <cardiac hazard label>
low or high

$$$$
>  <Compound>
CN(C)CCCC1(c2ccc(F)cc2)OCc2cc(C#N)ccc21 (centres unmarked) [Citalopram]

>  <cardiac hazard label>
low

$$$$

These entries and their values trace back to paper PMC6294263.
